Where do these numbers come from? They come from patent US20040023901A1.

biological target: UniProt P12268; experiment: Assay for inhibition of IMPDH activity (human type II); assay type: biochemical; conditions: 50 uM IMP, 150 uM NAD, 25° C.
Below, each entry is listed with its recorded Ki.
Write the number in µM without appending the unit.

Known results for molecules:
Query: What value of Ki has been reported for the following molecule? NC(=O)c1ncn([C@@H]2O[C@H](CP(=O)(O)O)[C@H](O)C2O)c1O (some centres unmarked)
Response: 7.92

Query: What value of Ki has been reported for the following molecule? NC(=O)c1ncn([C@@H]2O[C@H](CC(F)(F)P(=O)(O)O)[C@H](O)C2O)c1O (some centres unmarked)
Response: 2.04

Query: What value of Ki has been reported for the following molecule? NC(=O)c1ncn([C@@H]2O[C@H](COP(=O)(O)S)[C@H](O)C2O)n1 (some centres unmarked)
Response: 0.94

Query: What value of Ki has been reported for the following molecule? NC(=O)c1ncn([C@@H]2O[C@H](CC(F)(F)P(=O)(O)O)[C@H](O)C2O)n1 (some centres unmarked)
Response: 27.1

Query: What value of Ki has been reported for the following molecule? NC(=O)c1ncn([C@@H]2O[C@H](COCP(=O)(O)O)[C@@H](O)[C@H]2O)n1
Response: 85

Query: What value of Ki has been reported for the following molecule? NC(=O)c1ncn([C@@H]2O[C@H](CP(=O)(O)O)[C@@H](O)[C@H]2O)n1
Response: 1.82

Query: What value of Ki has been reported for the following molecule? NC(=O)c1ncn([C@@H]2O[C@H](CO[PH](O)=S)[C@H](O)C2O)n1 (some centres unmarked)
Response: 34.7

Please turn your attention to the following entry.
Query: What value of Ki has been reported for the following molecule? C#Cc1c(C(N)=O)ncn1[C@@H]1O[C@H](COP(=O)(O)S)[C@H](O)C1O (some centres unmarked)
Response: 34.2
